- targetEntity: PI3Kα (p110α/p85α) (Homo sapiens)
- Sequence (P42336 whole entry): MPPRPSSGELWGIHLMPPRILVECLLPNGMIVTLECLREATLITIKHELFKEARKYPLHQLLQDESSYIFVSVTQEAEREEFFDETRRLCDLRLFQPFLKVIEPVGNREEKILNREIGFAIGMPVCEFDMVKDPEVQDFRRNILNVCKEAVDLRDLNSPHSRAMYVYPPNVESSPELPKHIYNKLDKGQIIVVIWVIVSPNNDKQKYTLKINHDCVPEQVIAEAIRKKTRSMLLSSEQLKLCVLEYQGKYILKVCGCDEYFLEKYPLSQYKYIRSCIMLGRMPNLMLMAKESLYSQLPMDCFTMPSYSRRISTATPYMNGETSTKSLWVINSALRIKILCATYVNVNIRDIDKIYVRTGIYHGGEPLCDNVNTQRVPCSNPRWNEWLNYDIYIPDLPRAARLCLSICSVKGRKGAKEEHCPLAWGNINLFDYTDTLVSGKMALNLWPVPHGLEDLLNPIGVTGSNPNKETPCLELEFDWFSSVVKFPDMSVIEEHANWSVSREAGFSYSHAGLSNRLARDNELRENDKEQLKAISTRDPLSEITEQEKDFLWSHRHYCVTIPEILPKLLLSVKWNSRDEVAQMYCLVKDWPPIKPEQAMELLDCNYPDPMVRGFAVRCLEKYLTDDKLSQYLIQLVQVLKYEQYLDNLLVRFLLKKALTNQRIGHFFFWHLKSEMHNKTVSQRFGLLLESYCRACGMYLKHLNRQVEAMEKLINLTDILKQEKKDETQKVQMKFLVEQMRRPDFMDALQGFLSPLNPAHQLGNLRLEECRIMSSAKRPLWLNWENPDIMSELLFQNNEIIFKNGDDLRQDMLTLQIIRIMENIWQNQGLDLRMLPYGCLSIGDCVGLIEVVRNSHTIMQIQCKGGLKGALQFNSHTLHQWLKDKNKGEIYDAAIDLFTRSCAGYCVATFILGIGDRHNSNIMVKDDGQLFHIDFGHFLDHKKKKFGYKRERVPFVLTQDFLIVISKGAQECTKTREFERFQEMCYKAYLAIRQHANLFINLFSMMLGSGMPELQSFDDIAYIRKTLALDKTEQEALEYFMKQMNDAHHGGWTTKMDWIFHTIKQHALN
- Sequence (P27986 whole entry partner): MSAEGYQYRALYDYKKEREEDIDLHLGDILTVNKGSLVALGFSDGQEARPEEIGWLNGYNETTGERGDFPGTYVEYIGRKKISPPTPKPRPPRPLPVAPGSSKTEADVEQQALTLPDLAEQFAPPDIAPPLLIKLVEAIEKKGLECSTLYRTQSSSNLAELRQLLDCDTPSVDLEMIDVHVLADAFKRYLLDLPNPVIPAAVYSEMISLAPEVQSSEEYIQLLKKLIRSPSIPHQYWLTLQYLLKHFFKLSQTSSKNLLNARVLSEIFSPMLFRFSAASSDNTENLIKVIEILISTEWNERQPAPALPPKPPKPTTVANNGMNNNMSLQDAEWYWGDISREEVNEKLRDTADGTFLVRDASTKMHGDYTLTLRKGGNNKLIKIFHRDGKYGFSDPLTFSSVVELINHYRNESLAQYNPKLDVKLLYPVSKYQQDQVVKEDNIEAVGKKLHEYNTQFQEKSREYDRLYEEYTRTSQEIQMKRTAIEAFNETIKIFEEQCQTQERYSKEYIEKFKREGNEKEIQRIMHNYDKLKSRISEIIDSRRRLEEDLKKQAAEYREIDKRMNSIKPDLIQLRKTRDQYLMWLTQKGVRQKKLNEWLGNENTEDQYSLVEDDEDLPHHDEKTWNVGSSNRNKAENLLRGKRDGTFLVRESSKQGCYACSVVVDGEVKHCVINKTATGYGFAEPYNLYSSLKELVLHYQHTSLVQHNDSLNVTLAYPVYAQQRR
- assayComment: HTRF assay, potency against active PI3Kα
- measurementConditions: HTRF; [ATP]=50 μM, [di-C8-PIP2]=10 μM; 30 min pre-incubation; read-out: PI3Kα Inhibition
Listing: IC50 of selected compounds
measuredAttribute: IC50

                                   compound  experimentalvalue
0  CC(C)CC(=O)C(=O)N1CCN(c2ccc(-c3cc(-c4cnc(N)nc4)nc(N4CCOCC4)c3)cn2)CC1 [XII-29]     100 to 1000 nM
1  C=CC(=O)Nc1ccc(CNC(=O)c2cc(-c3cccc4[nH]ncc34)nc(N3CCOCC3)c2)cc1 [XII-14]          > 1000 nM
2  CC(C)=CC(=O)CCCC(=O)N(C)Cc1cc2nc(-c3cnc(N)nc3)nc(N3CCOCC3)c2s1 [II-a-174]       10 to 100 nM
3  C=CC(=O)Nc1ccc(C(=O)N(C)Cc2cc3nc(-c4cnc(N)nc4)nc(N4CCOCC4)c3s2)cc1 [II-a-175]       10 to 100 nM
4  COc1ccc(-c2nn(C3CCN(C(=O)CCCC(=O)/C=C/c4ccccc4)CC3)c3ncnc(N)c23)cc1OC [XI-5]          > 1000 nM
5  CC(C)=CC(=O)CCCCC#Cc1cc(-c2cnc(N)nc2)nc(N2CCOCC2)c1 [XII-6]     100 to 1000 nM
6  C=CC(=O)Nc1ccc(N2CCN(C(=O)c3cc4nc(-c5cccc(O)c5)nc(N5CCOCC5)c4s3)CC2)cc1 [II-a-127]     100 to 1000 nM
7  C/C=C(\C)C(=O)CCC(=O)N1CCN(Cc2cc3nc(-c4cccc5[nH]ncc45)nc(N4CCOCC4)c3s2)CC1 [II-a-149]     100 to 1000 nM
